tested on: UACC-257 melanoma; test: NCI tumour cell line growth inhibition, 48 h
Give measured TGI for each item. Keep answers brief.

Query: Fill in: TGI of COc1ccc(-n2c(C)nc3ccc(NC4OCC(OC(C)=O)C(OC(C)=O)C4OC(C)=O)cc3c2=O)cc1 (stereo not given) is ___
Result: > 100 µM

Query: Fill in: TGI of "O=C1C=CC2(C=C1)O[C@H](CCc1ccccc1)[C@@H](CCc1ccccc1)O2" is ___
Result: > 100 µM

Query: Fill in: TGI of "CCN1C(c2ccccc2)=CC(c2ccccc2)(C(Cl)(Cl)Cl)C=C1c1ccccc1" is ___
Result: > 100 µM

Query: Fill in: TGI of "COC(=O)/C=C1/OC(c2ccccc2)=C(Br)C1=O" is ___
Result: > 100 µM

Query: Fill in: TGI of "CC[P+](C)(C)CC" is ___
Result: > 100 µM

Query: Fill in: TGI of O=C1CC2=CCCC2O1 (stereo not given) is ___
Result: > 100 µM

Query: Fill in: TGI of O=C1C2C3C=CC(C2C(=O)N1CN1CCOCC1)C1C2C(=O)N(CN4CCOCC4)C(=O)C2C31 (stereo not given) is ___
Result: > 71.5 µM

Query: Fill in: TGI of "COc1cc(Br)c(C=Nc2cccc3ccc(OS(=O)(=O)c4ccc([N+](=O)[O-])cc4)cc23)cc1OC" is ___
Result: > 100 µM

Query: Fill in: TGI of "COC(=O)c1c(C)c2c(c(C)c1O)OC(=O)c1c(C)cc(O)c(C=O)c1O2" is ___
Result: > 100 µM

Query: Fill in: TGI of "CCn1cnc(C[C@H](NC(=O)[C@@H](NC(=O)Nc2cc(C(F)(F)F)cc(C(F)(F)F)c2)C(C)(C)C)C(=O)OC)c1" is ___
Result: > 10 µM
